For each of the compounds below, state its TGI.
System: CCRF-CEM leukemia
Assay: NCI tumour cell line growth inhibition, 48 h
Give bare numbers, in µM.

Known results for compounds:
Cc1c(C(=O)O)n(-c2ccc(Cl)cc2)c2ncnc(N)c12 = 90.5
CC1(C)C(OC(=O)c2ccccc2)C[C@]23CCC[C@](C)(C[C@@H](O)C12)C3 (some centres not stated) = 37.4

**Q:** # input compound: S=C1NCN2CCN(CC2)CNC(=S)C(=S)NCN2CCN(CC2)CNC1=S ; wanted: its TGI
**A:** 62.3

----------
System: SN12C renal
Assay: NCI tumour cell line growth inhibition, 48 h; in the data active means GI50 below about 0.43 µM; inactive means the rest
Select the correct class. Options are class 1 for active, class 0 for inactive and nothing else.

CCCCCCNC(=O)Nc1ccc2cc3ccc(NC(=O)NCCCCCC)cc3nc2c1 = class 0
COc1ccc(S(=O)(=O)Nc2cc(/C=C\c3cc(OC)c(OC)c(OC)c3)cc(OC)c2OC)cc1 = class 1

Now look at this one.
**Q:** Please indicate how the test categorized Cc1ccc(C2=C(c3ccc(C)cc3)C3(c4ccc(C)cc4)[C@@H](C#N)[C@H](C#N)C2(c2ccc(C)cc2)S3=O)cc1 (stereo not given in full) .
**A:** class 0
